# Test system: K-562 leukemia
# experiment: NCI-60 one-dose screen, 48 h
# run_parameters: 10 µM unless noted
Compounds without any hit were thinned out: in the full panel of roughly 83,000, 20% have a hit. Calls of active or inactive are those of the source. How the source made its calls: active means growth percent below 10; inactive means the rest.
// allowed return values: t for active, f for inactive

[ask] Which result was noted for this molecule in the test: `C=C(C)[C@@H]1CC[C@]2(C)[C@H](CC=C3[C@@H]4CC(C)(C)CC[C@]4(C=O)CC[C@]32C)[C@@]1(C)CCCN`
[reply] t

[ask] Which result was noted for this molecule in the test: Nc1nc2c(c(=O)[nH]1)C(c1ccc3c(c1)OCO3)C=C(C(=O)O)N2 (centres undefined)
[reply] f

[ask] Which result was noted for this molecule in the test: `COc1ccc2c(c1)c(-c1nc(-c3c[nH]c4ncccc34)cs1)cn2CCNC(=O)OC(C)(C)C`
[reply] f

[ask] Which result was noted for this molecule in the test: `C[C@H]1[C@H]2C3=CC[C@@H]4[C@@]5(C)C/C(=C/c6ccco6)C(=O)C(C)(C)[C@@H]5CC[C@@]4(C)[C@]3(C)CC[C@@]2(C(=O)N2CCOCC2)CC[C@@H]1C`
[reply] f

###

Please go through the items and note down their growth.
# System: HCC-2998 colon
# experiment: NCI-60 one-dose screen, 48 h (100 = growth as untreated, 0 = no growth, -100 = all killed)
# run_parameters: 10 µM unless noted
The panel holds about 83,000 compounds, 20% with a hit somewhere; the sample as a whole holds those more often.
One number for each entry, in %.

As a guide, the following entries are already answered.
| compound | test_result |
| --- | --- |
| C/C(=N\NC(=O)C(C)SC(C)C(=O)N/N=C(\C)c1cccnc1)c1cccnc1 (centres undefined) | 106 |
| COc1cc2ncnc(Nc3ccc(OCc4cccc(F)c4)c(Cl)c3)c2cc1NC(=O)C1CCCC1 | 103 |
| C=C(C)[C@@H]1CC[C@]2(C(=O)N3CCCNCC3)CC[C@]3(C)[C@H](CC[C@@H]4[C@@]5(C)CCC(=O)C(C)(C)[C@@H]5CC[C@]43C)[C@@H]12 | 103 |

# batch: return growth for each of the 3 compounds below
1. Oc1cc(/C=C/c2nc(N3CCOCC3)c3cc(Cl)c(Cl)cc3n2)cc(O)c1O
2. COc1ccc(-c2nc(Nc3ccc(-c4nc5ccccc5[nH]4)cc3)nc(N3CCOCC3)n2)cc1
3. CC(C)(C)c1ccc(OP(=S)(N/N=C/c2ccccc2O)Oc2ccc(C(C)(C)C)cc2)cc1

[reply]
104
-19.8
86.2

###

# System: SF-268 CNS
# experiment: NCI-60 one-dose screen, 48 h
# run_parameters: 10 µM unless noted
This is part of a sample that, as a whole, favours compounds with a hit. Of some 83,000 tested, about 20% had one in any assay. Calls of active or inactive are those of the source. The calls were made as follows: active = growth percent below 10; inactive = the rest.
// allowed return values: active, inactive

| smiles_record | discrete_label |
| --- | --- |
| COc1cccc(-c2nn(-c3ccccc3)cc2-c2ccnc(NCCCNS(=O)(=O)c3ccc(Br)cc3)c2)c1 | inactive |
| CCCCC[C@H]1C/C=C2/C(=O)C(Cl)=C[C@@H]2C/C=C\CCCC(=O)O[C@@H](CCCCC)C/C=C2/C(=O)C(Cl)=C[C@@H]2C/C=C\CCCC(=O)O1 | active |

Now let's try a different one.
[ask] Which result was noted for this compound in the test: `CC(=O)O[C@H]1CC[C@]2(C)[C@H]3CC=C4[C@@H]5[C@H](C)[C@@H](C)CC[C@]5(C(=O)NCCNCCNCCN)CC[C@@]4(C)[C@]3(C)CC[C@H]2C1(C)C`
[reply] inactive
